Cited source for all entries: patent US20240101531A1

- assay_target: human KV7.2/KV7.3 (Homo sapiens (Human), UniProt O43525+O43526)
- method_summary: Potassium flux assay (IPG-2 AM dye)
- particulars: TREX HEK 293 or HEK 293 cells expressing human KV7.2/KV7.3; arithmetic mean values
Structures can show the parent of a compound that is named as a salt.
measure_name: EC50

# count of solved cases: 5
compound	EC50
FC1(COc2ccc3c(Nc4ccc(Cl)nc4)nccc3c2)CCC1	1000 to 10000 nM
COC1(COc2ccc3c(Nc4cnc(C)nc4)nccc3c2)COC1 [Example 219, formate]	1000 to 10000 nM
[2H]C([2H])(Oc1ccc2c(Nc3ccc(Cl)nc3)nccc2c1)c1cnn(C)c1	< 1000 nM
C[C@]1(O)CC[C@H](Oc2ccc3c(Nc4ccc(Cl)nc4)nccc3c2)CC1	1000 to 10000 nM
CNc1cc(Nc2nccc3cc(OCC4(C)COC4)ccc23)cnc1Cl	< 1000 nM

Endpoint output: EC50 of OCC(F)(F)COc1ccc2c(Nc3ccc(Cl)nc3)nccc2c1 . Value?
1000 to 10000 nM

Moving on to the next compound: OCC1(COc2ccc3c(Nc4ccc(Cl)nc4)nccc3c2)CC1
< 1000 nM

Moving on to the next compound: Clc1ccc(Nc2nccc3cc(OCc4cnn5c4CCCC5)ccc23)cn1
1000 to 10000 nM

Moving on to the next compound: Clc1ccc(Nc2nccc3cc(-c4cncnc4)ccc23)cn1
10000 to 30000 nM

---

- assay_target: human KV7.2/KV7.3 (Homo sapiens (Human), UniProt O43525+O43526)
- method_summary: Potassium flux assay (IPG-2 AM dye)
- particulars: TREX HEK 293 or HEK 293 cells expressing human KV7.2/KV7.3; arithmetic mean values
Counter-ions that a name gives are not always drawn.
measure_name: EC50

# count of solved cases: 8
molecule	measure_name	measured_value
Cc1n[nH]c(C)c1COc1ccc2c(Nc3ccc(Cl)nc3)nccc2c1 [Example 338]	EC50	1 to 10 µM
Cc1ncc(Nc2nccc3cc(OCCOC4CC4)ccc23)cn1 [Example 38]	EC50	10 to 30 µM
CC(C)(COc1ccc2c(Nc3ccc(Cl)nc3)nccc2c1)N1CCOCC1 [Example 101]	EC50	1 to 10 µM
Clc1ccc(Nc2nccc3cc(OC4CCN(Cc5ncccn5)CC4)ccc23)cn1 [Example 314]	EC50	1 to 10 µM
FC1(COc2ccc3c(Nc4ccc(C(F)(F)F)nc4)nccc3c2)CC1 [Example 47]	EC50	≥ 30 µM
FC1(COc2ccc3c(Nc4cnc(Cl)nc4)nccc3c2)CC1 [Example 68]	EC50	< 1 µM
C[C@]1(O)CCC[C@@H](Oc2ccc3c(Nc4ccc(Cl)nc4)nccc3c2)C1 [Example 148]	EC50	< 1 µM
N#CC1(COc2ccc3c(Nc4ccc(Cl)nc4)nccc3c2)CC(F)(F)C1 [Example 234]	EC50	< 1 µM

Endpoint output: EC50 of COc1cc(Nc2nccc3cc(OCC4(C)COC4)ccc23)cnc1C [Example 187, formate] . Value?
< 1 µM

Moving on to the next molecule: Clc1ccc(Nc2nccc3cc(OCC4(OCc5ccncc5)CC4)ccc23)cn1 [Example 362]
1 to 10 µM

Moving on to the next molecule: N#C[C@@H]1CCC[C@@H](Oc2ccc3c(Nc4ccc(Cl)nc4)nccc3c2)C1 [Example 344]
1 to 10 µM

Moving on to the next molecule: FC(F)c1ccc(Nc2nccc3cc(OCC4(F)CC4)ccc23)cn1 [Example 43]
≥ 30 µM

Moving on to the next molecule: CO[C@@H](C)c1ccc2c(Nc3ccc(Cl)nc3)nccc2c1 [Example 133]
10 to 30 µM

Moving on to the next molecule: FC(F)C(F)(F)COc1ccc2c(Nc3ccc(Cl)nc3)nccc2c1 [Example 409]
1 to 10 µM

---

Reported values of EC50 for individual entries
- assay_target: human KV7.2/KV7.3 (Homo sapiens (Human), UniProt O43525+O43526)
- method_summary: Potassium flux assay (IPG-2 AM dye)
- particulars: TREX HEK 293 or HEK 293 cells expressing human KV7.2/KV7.3; arithmetic mean values
Structures can show the parent of a compound that is named as a salt.

compound	EC50
COc1ncc(COc2ccc3c(Nc4ccc(Cl)nc4)nccc3c2)cn1	1000 to 10000 nM
Cc1ncc(Nc2nccc3cc(OCc4cnn(C)c4C)ccc23)cn1	< 1000 nM
Clc1ccc(Nc2nccc3cc(OCC4(C5CC5)CC4)ccc23)cn1	< 1000 nM
Cc1ncc(Nc2nccc3cc(OCC4(C#N)CC4)ccc23)cn1 [Example 88]	1000 to 10000 nM
COc1ncc(Nc2nccc3cc(OCc4cnn(C)c4)ccc23)cn1	< 1000 nM
COc1ccc2c(Nc3ccc(Cl)nc3)nccc2c1 [Example 19, formate]	1000 to 10000 nM
Clc1ccc(Nc2nccc3cc(OCCCn4ccnc4)ccc23)cn1	1000 to 10000 nM
COCCOCCOc1ccc2c(Nc3ccc(Cl)nc3)nccc2c1	1000 to 10000 nM
CC1(C)CCC(COc2ccc3c(Nc4ccc(Cl)nc4)nccc3c2)O1 (stereo not shown)	1000 to 10000 nM
Cc1ncc(Nc2nccc3cc(OCC4(F)CNC4)ccc23)cn1	≥ 30000 nM

Endpoint output: EC50 of Clc1ccc(Nc2nccc3cc(OCn4cccn4)ccc23)cn1 . Value?
1000 to 10000 nM

Moving on to the next compound: FC1(F)CN[C@@H](COc2ccc3c(Nc4ccc(Cl)nc4)nccc3c2)C1 [Example 227, trifluoroacetate]
1000 to 10000 nM

Moving on to the next compound: NC(=O)C1(Oc2ccc3c(Nc4cnc(Cl)nc4)nccc3c2)CC1
1000 to 10000 nM

Moving on to the next compound: Clc1ccc(Nc2nccc3cc(OCCc4ccccn4)ccc23)cn1
1000 to 10000 nM

Moving on to the next compound: Cc1ncc(Nc2nccc3cc(OCC4(C#N)COC4)ccc23)cn1
1000 to 10000 nM

Moving on to the next compound: Cn1cc(COc2cnc3c(Nc4cnc(Cl)nc4)nccc3c2)cn1
< 1000 nM

Moving on to the next compound: Clc1ccc(Nc2nccc3cc(OCc4cnn5c4OCCC5)ccc23)cn1
10000 to 30000 nM

Moving on to the next compound: FC1(COc2ccc3c(Nc4ccc(Cl)nc4)nccc3c2)CCOC1 (stereo in doubt) [Example 364]
< 1000 nM

Moving on to the next compound: COCC1(COc2ccc3c(Nc4ccc(Cl)nc4)nccc3c2)COC1
< 1000 nM

Moving on to the next compound: CCn1ccc(COc2ccc3c(Nc4ccc(Cl)nc4)nccc3c2)n1 [Example 188, formate]
1000 to 10000 nM

Moving on to the next compound: FC(F)(F)OCCOc1ccc2c(Nc3ccc(Cl)nc3)nccc2c1
1000 to 10000 nM

Moving on to the next compound: FC1(F)CC1COc1ccc2c(Nc3ccc(Cl)nc3)nccc2c1 (stereo not shown)
< 1000 nM

Moving on to the next compound: FC1(COc2ccc3c(Nc4ccc(Cl)nc4)nccc3c2)CNC1 [Example 59, hydrochloride]
10000 to 30000 nM

Moving on to the next compound: O=S1(=O)CC(COc2ccc3c(Nc4ccc(Cl)nc4)nccc3c2)C1
< 1000 nM

---

- assay_target: human KV7.2/KV7.3 (Homo sapiens (Human), UniProt O43525+O43526)
- method_summary: Potassium flux assay (IPG-2 AM dye)
- particulars: TREX HEK 293 or HEK 293 cells expressing human KV7.2/KV7.3; arithmetic mean values
- Description: This potassium flux assay employs the cell-permeable, potassium-sensitive dye, IPG-2 AM, to quantify potassium ion flux through potassium channels. In general, TREX HEK 293 or HEK 293 cells were stably transfected with either an inducible or non-inducible expression vector containing the full-length cDNA coding for the desired human KV7.2/KV7.3 or in combination with another full-length cDNA for a second desired human KV7 potassium channel. […]
measure_name: EC50

# count of solved cases: 7
molecule	measure_name	measured_value
CC(=O)N1CC[C@@H](Oc2ccc3c(Nc4ccc(Cl)nc4)nccc3c2)C1 [Example 112]	EC50	1 to 10 µM
Fc1c(OCC2CC2)ccc2c(Nc3ccc(Cl)nc3)nccc12 [Example 229]	EC50	1 to 10 µM
CS(=O)(=Nc1ccc2c(Nc3ccc(Cl)nc3)nccc2c1)C1CC1 (stereo in doubt) [Example 273]	EC50	1 to 10 µM
N#C[C@H]1C[C@](F)(COc2ccc3c(Nc4cnc(Cl)nc4)nccc3c2)C1 [Example 64]	EC50	< 1 µM
CC1(CCc2ccc3c(Nc4ccc(Cl)nc4)nccc3c2)COC1 [Example 341]	EC50	1 to 10 µM
Clc1ccc(Nc2nccc3cc(OCc4cnn(C5COC5)c4)ccc23)cn1 [Example 117]	EC50	< 1 µM
Cc1nn(C)cc1[C@H](C)Oc1ccc2c(Nc3ccc(Cl)nc3)nccc2c1 [Example 175]	EC50	1 to 10 µM

Shifting focus to the molecule that follows.
Endpoint output: EC50 of Clc1ccc(Nc2nccc3cc(OC[C@@H]4CCN(Cc5ccccc5)C4)ccc23)cn1 [Example 283] . Value?
1 to 10 µM
